Provenance of the data: the supplement of paper PMC10567573

B1: FAM107A (parent)
chain: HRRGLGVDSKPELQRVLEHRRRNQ

- Variants of: B1
- assay_explanation: protein stability index of a GFP-peptide fusion (GPS, HEK-293T) (PSI 1-6); higher = more stable;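 further: lentivirally expressed fusions sorted by FACS into six bins by GFP to DsRed ratio, PSI derived from sequencing read proportions per bin multiplied by bin number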
- experimental_parameters: c terminus: a fixed tail appended
measure_name: protein stability index

INSERT INTO measurements (mutation_string, measure_name, value_measured) VALUES
  ('R3H', 'protein stability index', 4.95),
  ('S9L', 'protein stability index', 4.15),
  ('E12R', 'protein stability index', 2.99),
  ('D8H', 'protein stability index', 3.74),
  ('R22H', 'protein stability index', 3.55),
  ('H19G', 'protein stability index', 4.68),
  ('R15K', 'protein stability index', 3.31),
  ('G4T', 'protein stability index', 3.35),
  ('S9F', 'protein stability index', 3.52),
  ('Q14K', 'protein stability index', 3.39),
  ('R20G', 'protein stability index', 3.95);
